The values you see were collected from patent US9096601B2.

System: non-small cell lung carcinoma cell strain HCC827
Test: In-vitro tumor cell proliferation inhibition, MTT
Type: cell-based, human
Settings: 72 hours
Experimental: The object of this assay was to test the inventive compounds for the inhibitory activity of in-vitro tumor cell proliferation. The MTT (tetreamethyl-azo-zole-salt) colorimetric method was used in this assay. All of the above-mentioned non-small cell lung carcinoma cell strains and the breast carcinoma cell strain BT 474 were cultured with a RPMI-1640 complete culture medium containing 10% fetal bovine serum, 100 U/ml penicillin and 100 μg/ml streptomycin under 5% CO2 and at 37° C. […]
Kindly state pIC50 for each of the entries shown.
// pIC50 is dimensionless: -log10 of concentration (M)

The reported non-small cell lung carcinoma cell strain HCC827 pIC50 of `CN1CCN(c2ccc(Nc3ncc4nc(Nc5cc(Cl)cc(Cl)c5)n(C5CCCC5)c4n3)cc2)CC1` is 8.20

# value of pIC50, non-small cell lung carcinoma cell strain HCC827, item `CN1CCN(c2ccc(Nc3ncc4nc(Nc5cc(Cl)c(Cl)cc5Cl)n(C5CCCC5)c4n3)cc2)CC1` = 7.55

Entry `CC(C)n1c(Nc2ccccc2)nc2cnc(Nc3ccc(N4CCN(C)CC4)cc3)nc21` under non-small cell lung carcinoma cell strain HCC827 had pIC50 of 10.00

The compound `COc1cccc(Nc2nc3cnc(Nc4ccc(N5CCN(C)CC5)cc4)nc3n2C(C)C)c1` , when measured on non-small cell lung carcinoma cell strain HCC827, yielded pIC50 of 9.70

* * *

Test system: liver cancer cell strain Hep G2
Assay: In-vitro tumor cell proliferation inhibition, MTT
Format: cell-based, human
Details: 72 hours, read-out: HEPG2 (IC50)
Measured Endpoint: pIC50
Here pIC50 is given on a logarithmic scale as minus log10 of the concentration in mol/L.

Lab note: measured pIC50 of `CC(C)n1c(Nc2ccc(NC(=O)Nc3ccc(F)c(Cl)c3)cc2)nc2cnc(Nc3ccc(N4CCN(C)CC4)cc3)nc21` was 5.05

Entry `CC(C)n1c(Nc2ccc(Cl)nc2)nc2cnc(Nc3ccc(N4CCN(C)CC4)cc3)nc21` — recorded pIC50 = 5.66

`CC(C)n1c(Nc2ccc(Br)cc2)nc2cnc(Nc3ccc(N4CCN(C)CC4)cc3)nc21` has a reported pIC50 of 5.11

Entry `C#Cc1cccc(Nc2nc3cnc(Nc4ccc(N5CCN(C)CC5)cc4)nc3n2C(C)C)c1` ; pIC50 = 5.18

* * *

Give measured The kinase activity inhibitory rate (%) by the tested compounds at 10 μM BTK for each item. Keep answers brief.
Molecular target: BTK (Homo sapiens (Human), UniProt Q06187)
Sequence (Q06187 whole entry): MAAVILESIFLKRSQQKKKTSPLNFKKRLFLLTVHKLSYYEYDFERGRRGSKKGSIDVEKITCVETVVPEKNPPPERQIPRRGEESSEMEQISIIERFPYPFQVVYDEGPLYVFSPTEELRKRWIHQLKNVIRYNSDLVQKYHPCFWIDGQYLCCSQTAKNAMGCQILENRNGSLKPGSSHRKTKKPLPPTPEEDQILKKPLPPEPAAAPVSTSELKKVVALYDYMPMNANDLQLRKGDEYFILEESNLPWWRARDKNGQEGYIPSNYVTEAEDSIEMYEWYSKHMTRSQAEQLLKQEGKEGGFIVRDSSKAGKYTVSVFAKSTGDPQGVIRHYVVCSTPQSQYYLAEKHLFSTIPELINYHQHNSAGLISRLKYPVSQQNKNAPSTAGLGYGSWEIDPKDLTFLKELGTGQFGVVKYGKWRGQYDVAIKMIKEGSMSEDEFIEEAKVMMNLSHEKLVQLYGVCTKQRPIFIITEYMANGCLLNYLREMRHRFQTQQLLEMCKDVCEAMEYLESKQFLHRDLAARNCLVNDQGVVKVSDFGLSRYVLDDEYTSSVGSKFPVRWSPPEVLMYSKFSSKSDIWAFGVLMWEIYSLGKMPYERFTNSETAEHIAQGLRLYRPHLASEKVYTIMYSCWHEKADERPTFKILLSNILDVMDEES
Assay: Kinase inhibitory activity, isotopic labeling (γ-33P-ATP)
Type: biochemical
Conditions: compound at 10 μM
Only the number, expressed in %, is required.

Form: compound = CN1CCN(c2ccc(Nc3ncc4nc(Nc5ccccc5)[nH]c4n3)cc2)CC1 [Compounds 8-25] ; The kinase activity inhibitory rate (%) by the tested compounds at 10 μM BTK = 45

The kinase activity inhibitory rate (%) by the tested compounds at 10 μM BTK measured on CC(C)n1c(Nc2cccc(Br)c2)nc2cnc(Nc3ccc(N4CCN(C)CC4)cc3)nc21 [Compounds 8-11] = 77

Lab note: CC(C)n1c(Nc2ccc(C(F)(F)F)cc2)nc2cnc(Nc3ccc(N4CCN(C)CC4)cc3)nc21 [Compounds 8-27] gave The kinase activity inhibitory rate (%) by the tested compounds at 10 μM BTK of 74

So, CC(C)n1c(Nc2ccccc2)nc2cnc(Nc3ccc(C(=O)NC4CCN(C)CC4)cc3)nc21 [Compounds 8-9] ? Its The kinase activity inhibitory rate (%) by the tested compounds at 10 μM BTK was 88

Per the record, CC(C)n1c(Nc2ccccc2)nc2cnc(Nc3ccc(C(=O)NN4CCN(C)CC4)cc3)nc21 [Compound 8-1] has The kinase activity inhibitory rate (%) by the tested compounds at 10 μM BTK of 46

Measured The kinase activity inhibitory rate (%) by the tested compounds at 10 μM BTK, CC(C)n1c(Nc2ccc(F)c(Cl)c2)nc2cnc(Nc3ccc(N4CCN(C)CC4)cc3)nc21 [Compounds 8-13] : 45

Summary for this compound, CC(C)n1c(Nc2ccc(NC(=O)Nc3ccc(F)c(Cl)c3)cc2)nc2cnc(Nc3ccc(N4CCN(C)CC4)cc3)nc21 [Compounds 8-21] : The kinase activity inhibitory rate (%) by the tested compounds at 10 μM BTK is 92

For record CC(C)n1c(Nc2ccc(Br)cc2)nc2cnc(Nc3ccc(N4CCN(C)CC4)cc3)nc21 [Compounds 8-15] the listed The kinase activity inhibitory rate (%) by the tested compounds at 10 μM BTK is 95

Entry CC(C)n1c(Nc2ccc(F)c(Cl)c2)nc2cnc(Nc3ccc(C(=O)NN4CCN(C)CC4)cc3)nc21 [Compound 8-2] — recorded The kinase activity inhibitory rate (%) by the tested compounds at 10 μM BTK = 98

// field: The kinase activity inhibitory rate (%) by the tested compounds at 10 μM BTK; key: CC(C)n1c(Nc2cccc(C(F)(F)F)c2)nc2cnc(Nc3ccc(N4CCN(C)CC4)cc3)nc21 [Compounds 8-16] ; value = 57

In plain terms, CC(C)n1c(Nc2ccc(OCc3cccc(F)c3)c(Cl)c2)nc2cnc(Nc3ccc(N4CCN(C)CC4)cc3)nc21 [Compounds 8-19] has a documented The kinase activity inhibitory rate (%) by the tested compounds at 10 μM BTK of 71

According to the records, this compound CN1CCN(c2ccc(Nc3ncc4nc(Nc5ccccc5)n(C5CC5)c4n3)cc2)CC1 [Compounds 8-23] displays The kinase activity inhibitory rate (%) by the tested compounds at 10 μM BTK of 30

Field The kinase activity inhibitory rate (%) by the tested compounds at 10 μM BTK (entry CC(C)n1c(Nc2ccccc2)nc2cnc(Nc3ccc(N4CCN(C)CC4)cc3)nc21 [Compounds 8-10] ) reads 32

For reference, reported The kinase activity inhibitory rate (%) by the tested compounds at 10 μM BTK for CC(C)n1c(NC2CCCCC2)nc2cnc(Nc3ccc(N4CCN(C)CC4)cc3)nc21 [Compounds 8-30] stands at 25

Summary for this compound, COc1cccc(Nc2nc3cnc(Nc4ccc(N5CCN(C)CC5)cc4)nc3n2C(C)C)c1 [Compounds 8-17] : The kinase activity inhibitory rate (%) by the tested compounds at 10 μM BTK is 100

// recorded The kinase activity inhibitory rate (%) by the tested compounds at 10 μM BTK for CC(C)n1c(Nc2cccnc2)nc2cnc(Nc3ccc(N4CCN(C)CC4)cc3)nc21 [Compounds 8-29] : 60

The reported value for C#Cc1cccc(Nc2nc3cnc(Nc4ccc(N5CCN(C)CC5)cc4)nc3n2C(C)C)c1 [Compounds 8-12] in terms of The kinase activity inhibitory rate (%) by the tested compounds at 10 μM BTK is 78

* * *

Provide the reported IC50 of each item.
Target: VEGFR2 (Homo sapiens (Human), UniProt P35968)
Sequence (P35968 20-1356): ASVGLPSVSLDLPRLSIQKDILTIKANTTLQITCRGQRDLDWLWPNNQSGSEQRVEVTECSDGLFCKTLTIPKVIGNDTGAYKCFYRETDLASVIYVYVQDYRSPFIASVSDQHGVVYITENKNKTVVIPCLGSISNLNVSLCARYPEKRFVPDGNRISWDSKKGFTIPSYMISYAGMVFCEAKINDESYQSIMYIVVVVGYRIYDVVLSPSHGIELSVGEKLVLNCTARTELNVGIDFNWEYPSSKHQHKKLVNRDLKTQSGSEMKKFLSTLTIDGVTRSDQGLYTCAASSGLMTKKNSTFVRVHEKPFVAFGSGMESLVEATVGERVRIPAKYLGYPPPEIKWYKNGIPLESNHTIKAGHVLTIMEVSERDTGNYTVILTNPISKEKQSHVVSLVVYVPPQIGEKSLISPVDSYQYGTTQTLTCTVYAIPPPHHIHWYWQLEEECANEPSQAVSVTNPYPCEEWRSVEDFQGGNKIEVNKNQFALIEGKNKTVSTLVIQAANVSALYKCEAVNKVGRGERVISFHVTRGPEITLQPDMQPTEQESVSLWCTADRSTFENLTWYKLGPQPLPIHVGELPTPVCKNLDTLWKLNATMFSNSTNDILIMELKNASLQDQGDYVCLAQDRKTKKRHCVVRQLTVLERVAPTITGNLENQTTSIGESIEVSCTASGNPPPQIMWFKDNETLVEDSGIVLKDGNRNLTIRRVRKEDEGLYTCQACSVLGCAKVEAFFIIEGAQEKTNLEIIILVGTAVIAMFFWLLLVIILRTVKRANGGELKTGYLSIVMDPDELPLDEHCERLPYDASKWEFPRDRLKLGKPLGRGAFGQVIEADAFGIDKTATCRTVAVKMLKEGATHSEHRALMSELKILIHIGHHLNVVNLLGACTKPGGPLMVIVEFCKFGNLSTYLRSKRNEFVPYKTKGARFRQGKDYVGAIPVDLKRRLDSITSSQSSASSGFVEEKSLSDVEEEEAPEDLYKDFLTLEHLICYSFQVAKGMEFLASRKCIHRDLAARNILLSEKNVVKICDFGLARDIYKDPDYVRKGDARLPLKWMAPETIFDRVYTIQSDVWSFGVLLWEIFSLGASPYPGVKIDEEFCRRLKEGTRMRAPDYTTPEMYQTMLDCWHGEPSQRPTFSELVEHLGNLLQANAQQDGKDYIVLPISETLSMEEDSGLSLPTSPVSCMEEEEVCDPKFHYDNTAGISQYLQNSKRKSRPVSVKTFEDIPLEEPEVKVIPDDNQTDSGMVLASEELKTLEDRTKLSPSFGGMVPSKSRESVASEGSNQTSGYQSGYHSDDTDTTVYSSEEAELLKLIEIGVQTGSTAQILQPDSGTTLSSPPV
Assay: Kinase inhibitory activity, isotopic labeling (γ-33P-ATP)
Type: biochemical
Details: ATP 90 μM (Km)

Briefly, IC50 measured for `C=CC(=O)Nc1cccc(Nc2ncc3nc(Nc4ccccc4)n(C(C)C)c3n2)c1` : > 1000 nM

The compound identified as `CC(C)n1c(NC2CCCCC2)nc2cnc(Nc3ccc(N4CCN(C)CC4)cc3)nc21` registered its IC50 at > 1000 nM

Briefly, IC50 measured for `COc1ccc(Nc2nc3cnc(Nc4ccc(N5CCN(C)CC5)cc4)nc3n2C(C)C)cc1` : 21 nM

// IC50 lookup, compound = `CC(C)n1c(Nc2ccccc2)nc2cnc(Nc3ccc(C(=O)NN4CCN(C)CC4)cc3)nc21` , result: > 1000 nM

* * *

Tested on: colon cancer cell strain SW480
Test: In-vitro tumor cell proliferation inhibition, MTT
Assay type: cell-based, human
Settings: 72 hours
pIC50: −log10 of the molar value.
Measured Endpoint: pIC50

The compound listed as `CC(C)n1c(Nc2ccccc2)nc2cnc(Nc3ccc(C(=O)NC4CCN(C)CC4)cc3)nc21` shows pIC50 equal to < 5.00

// `CC(C)n1c(Nc2cccc(Br)c2)nc2cnc(Nc3ccc(N4CCN(C)CC4)cc3)nc21` : pIC50 value = < 5.00

Measured pIC50, `CN1CCN(c2ccc(Nc3ncc4nc(Nc5ccccc5)[nH]c4n3)cc2)CC1` : < 5.00

* * *

System: non-small cell lung carcinoma cell strain H1975 (EGFR L858R/T790M mutation)
Assay: In-vitro tumor cell proliferation inhibition, MTT
Assay type: cell-based, human
Conditions: 72 hours
Measured Endpoint: pIC50
Answer as the number alone; pIC50 is minus log10 of concentration in mol/L.

Response field pIC50 (non-small cell lung carcinoma cell strain H1975 (EGFR L858R/T790M mutation)) for item `C#Cc1cccc(Nc2nc3cnc(Nc4ccc(N5CCN(C)CC5)cc4)nc3n2C(C)C)c1` : 5.71

The compound `CN1CCN(c2ccc(Nc3ncc4nc(Nc5ccc(F)c(Cl)c5)n(C5CCCC5)c4n3)cc2)CC1` , tested on non-small cell lung carcinoma cell strain H1975 (EGFR L858R/T790M mutation), showed pIC50 of 5.82

The reported pIC50 value, non-small cell lung carcinoma cell strain H1975 (EGFR L858R/T790M mutation), for `CC(C)n1c(Nc2ccc(OCc3cccc(F)c3)c(Cl)c2)nc2cnc(Nc3ccc(N4CCN(C)CC4)cc3)nc21` reads 5.14

With non-small cell lung carcinoma cell strain H1975 (EGFR L858R/T790M mutation) as the test system, `CN1CCN(c2ccc(Nc3ncc4nc(Nc5cccc([N+](=O)[O-])c5)n(C5CCCC5)c4n3)cc2)CC1` showed pIC50 of 6.16

Recorded pIC50 for `C#Cc1cccc(Nc2nc3cnc(Nc4ccc(N5CCN(C)CC5)cc4)nc3n2C2CCCC2)c1` on non-small cell lung carcinoma cell strain H1975 (EGFR L858R/T790M mutation) was 6.11
